B1: ADD1 (parent)
chain: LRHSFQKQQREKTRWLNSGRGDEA

- Variants of: B1
- PROTOCOL DETAILS: protein stability index of a GFP-peptide fusion (GPS, HEK-293T) (PSI 1-6); higher = more stable;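 also: lentivirally expressed fusions sorted by FACS into six bins by GFP to DsRed ratio, PSI derived from sequencing read proportions per bin multiplied by bin number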
- CONDITION SUMMARY: c terminus: a fixed tail appended
protein stability index by entry:

VARIANT SPEC	protein stability index
R14G	4.03
L1R	4.42

The measured protein stability index associated with G19E reads 4.29

The measured protein stability index associated with G21L reads 3.64

The measured protein stability index associated with G19H reads 3.56

The measured protein stability index associated with K12P reads 3.56

The measured protein stability index associated with N17L reads 3.05

meta.source: the supplement of paper PMC10567573
